Record form. Attribute: IC50. Fill in for each entry.
Target: ACC2 (Homo sapiens, UniProt O00763)
Sequence (O00763 whole entry): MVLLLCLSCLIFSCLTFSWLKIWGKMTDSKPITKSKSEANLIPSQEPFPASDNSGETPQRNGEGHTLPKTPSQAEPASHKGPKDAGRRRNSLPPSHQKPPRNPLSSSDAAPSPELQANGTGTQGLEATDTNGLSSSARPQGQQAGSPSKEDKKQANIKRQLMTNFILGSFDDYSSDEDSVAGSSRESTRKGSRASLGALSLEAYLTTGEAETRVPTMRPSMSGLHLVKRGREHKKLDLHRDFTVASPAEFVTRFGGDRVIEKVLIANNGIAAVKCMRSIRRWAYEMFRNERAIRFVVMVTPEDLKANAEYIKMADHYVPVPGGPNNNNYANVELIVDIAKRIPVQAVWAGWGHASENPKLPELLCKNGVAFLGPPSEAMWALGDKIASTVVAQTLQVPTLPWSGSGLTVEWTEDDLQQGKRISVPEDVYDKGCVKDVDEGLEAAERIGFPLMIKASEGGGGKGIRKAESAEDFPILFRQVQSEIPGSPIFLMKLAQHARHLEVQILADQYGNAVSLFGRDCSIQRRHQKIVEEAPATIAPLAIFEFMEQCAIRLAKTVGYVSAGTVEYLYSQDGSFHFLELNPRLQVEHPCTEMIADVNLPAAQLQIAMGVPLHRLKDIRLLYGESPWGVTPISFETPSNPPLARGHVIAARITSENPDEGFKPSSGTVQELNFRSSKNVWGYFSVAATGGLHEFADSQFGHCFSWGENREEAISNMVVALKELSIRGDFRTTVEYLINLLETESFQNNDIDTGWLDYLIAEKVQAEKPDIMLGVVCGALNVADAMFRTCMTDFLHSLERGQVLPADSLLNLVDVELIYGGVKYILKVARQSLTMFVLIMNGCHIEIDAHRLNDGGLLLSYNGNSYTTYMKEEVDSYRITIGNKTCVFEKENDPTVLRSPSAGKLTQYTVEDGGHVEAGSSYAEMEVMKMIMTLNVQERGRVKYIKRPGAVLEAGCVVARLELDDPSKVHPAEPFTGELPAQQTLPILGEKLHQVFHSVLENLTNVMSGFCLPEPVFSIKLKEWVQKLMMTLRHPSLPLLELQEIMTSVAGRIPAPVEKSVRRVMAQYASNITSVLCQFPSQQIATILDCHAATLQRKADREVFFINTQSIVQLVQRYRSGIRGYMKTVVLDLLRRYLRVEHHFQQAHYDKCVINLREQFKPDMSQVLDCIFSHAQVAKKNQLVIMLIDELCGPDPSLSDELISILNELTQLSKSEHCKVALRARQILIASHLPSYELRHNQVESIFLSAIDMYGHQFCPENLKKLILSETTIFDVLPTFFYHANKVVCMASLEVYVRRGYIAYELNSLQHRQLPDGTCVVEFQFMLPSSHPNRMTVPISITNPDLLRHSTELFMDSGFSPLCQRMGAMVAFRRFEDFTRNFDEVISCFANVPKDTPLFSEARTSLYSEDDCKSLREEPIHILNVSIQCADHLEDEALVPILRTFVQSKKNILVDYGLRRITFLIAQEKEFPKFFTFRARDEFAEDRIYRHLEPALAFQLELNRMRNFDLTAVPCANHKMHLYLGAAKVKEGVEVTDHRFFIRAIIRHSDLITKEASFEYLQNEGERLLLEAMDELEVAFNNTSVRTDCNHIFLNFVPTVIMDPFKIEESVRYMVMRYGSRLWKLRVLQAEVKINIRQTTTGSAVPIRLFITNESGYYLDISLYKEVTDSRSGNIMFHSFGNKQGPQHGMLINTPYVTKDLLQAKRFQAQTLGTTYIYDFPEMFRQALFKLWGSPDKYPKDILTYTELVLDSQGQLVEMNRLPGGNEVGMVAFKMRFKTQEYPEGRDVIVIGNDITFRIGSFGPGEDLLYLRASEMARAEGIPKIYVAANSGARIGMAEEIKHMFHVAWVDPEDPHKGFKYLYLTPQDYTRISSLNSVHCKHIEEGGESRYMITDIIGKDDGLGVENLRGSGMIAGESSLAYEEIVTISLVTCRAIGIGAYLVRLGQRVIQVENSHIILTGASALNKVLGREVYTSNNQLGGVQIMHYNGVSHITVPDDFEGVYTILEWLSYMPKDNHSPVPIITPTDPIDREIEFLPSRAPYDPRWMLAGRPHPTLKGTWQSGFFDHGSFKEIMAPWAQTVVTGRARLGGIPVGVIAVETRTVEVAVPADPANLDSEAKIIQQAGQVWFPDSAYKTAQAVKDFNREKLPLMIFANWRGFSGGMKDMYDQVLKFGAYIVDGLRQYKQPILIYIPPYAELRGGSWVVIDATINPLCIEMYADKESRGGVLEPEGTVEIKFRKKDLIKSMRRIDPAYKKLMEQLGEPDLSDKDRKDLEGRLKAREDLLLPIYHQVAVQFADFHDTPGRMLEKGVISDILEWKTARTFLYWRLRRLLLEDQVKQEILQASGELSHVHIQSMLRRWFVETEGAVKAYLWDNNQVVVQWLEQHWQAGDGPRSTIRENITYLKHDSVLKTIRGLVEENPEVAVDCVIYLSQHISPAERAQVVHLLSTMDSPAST
Experiment: In vitro inhibition of ACC2 activity, ADP-Glo Kinase Analysis
Type: biochemical
Details: 1.1 nM ACC2, 20 μM acetyl-CoA, 15 μM ATP
Description: ADP-Glo™ Kinase Analysis Kit (Promega) is used for the in vitro analysis of the inhibitory effect of the present compound on ACC1 or ACC2. ADP-Glo™ Kinase Analysis is a kinase detection analysis of luminescence method. […] ADP is quantified by detecting the light signal, thus the enzyme activity can be measured by quantification of the ADP amount produced during the enzyme reaction. […] g. The chemiluminescence signal was detected with Perkin Elmer EnVision 2104. […]

Ask: # get_value(readout='IC50', item= COc1ccccc1C(CN1C(=O)C2(CCC(C(=O)O)C2)C(=O)c2c1sc(-c1ncco1)c2C)OC1CCOCC1 (single isomer, unassigned) )
Reply: < 10 nM

Ask: # get_value(readout='IC50', item= COc1ccccc1C(CN1C(=O)C2(CC(C(=O)O)C2)C(=O)c2c1sc(-c1ncco1)c2C)OC1CCOCC1 (single isomer, unassigned) )
Reply: < 10 nM

Ask: # get_value(readout='IC50', item= "COc1ccccc1[C@H](CN1c2sc(-c3ncco3)c(C)c2C(=O)[C@]2(C[C@H](C(=O)O)C2)C1=O)OC1CCOCC1" )
Reply: < 10 nM

----------
Record form. Attribute: IC50. Fill in for each entry.
molecular target: ACC1 (Homo sapiens); construct: purchased BPS bioscience; test: In vitro inhibition of ACC1 activity, ADP-Glo Kinase Analysis; type: biochemical; details: 1 nM ACC1, 10 μM acetyl-CoA, 20 μM ATP

Ask: # get_value(readout='IC50', item= COC(=O)CN(C)C(=O)[C@H]1C[C@@]2(C1)C(=O)c1c(sc(-c3ncco3)c1C)N(C[C@H](OC1CCOCC1)c1ccccc1OC)C2=O [Compound 15-1] )
Reply: < 10 nM

Ask: # get_value(readout='IC50', item= COc1ccccc1C(CN1C(=O)C2(CC(C(=O)O)C2)C(=O)c2c1sc(-c1ncco1)c2C)OC1CCOCC1 (mixture of isomers) [Compound 8] )
Reply: < 10 nM

Ask: # get_value(readout='IC50', item= COc1ccccc1[C@H](CN1c2sc(-c3ncco3)c(C)c2C(=O)[C@]2(C[C@H](C(=O)NC(C)(C)C(=O)O)C2)C1=O)OC1CCOCC1 [Compound 11] )
Reply: < 10 nM

Ask: # get_value(readout='IC50', item= COc1ccccc1[C@H](CN1c2sc(-c3ncco3)c(C)c2C(=O)[C@]2(C[C@H](C(=O)N[C@H](C)C(=O)O)C2)C1=O)OC1CCOCC1 [Compound 14] )
Reply: < 10 nM

Ask: # get_value(readout='IC50', item= COc1ccccc1C(CN1C(=O)C2(CCC(C(=O)O)C2)C(=O)c2c1sc(-c1ncco1)c2C)OC1CCOCC1 (single isomer, unassigned) [Compound 5c] )
Reply: < 10 nM

Ask: # get_value(readout='IC50', item= COc1ccccc1[C@H](CN1C(=O)C2(CCN(CC(=O)O)CC2)C(=O)c2c1sc(-c1ncco1)c2C)OC1CCOCC1 [Compound 23] )
Reply: < 10 nM

Ask: # get_value(readout='IC50', item= COc1ccccc1C(CN1C(=O)C2(CCC(C(=O)O)C2)C(=O)c2c1sc(-c1ncco1)c2C)OC1CCOCC1 (single isomer, unassigned) [Compound 5a] )
Reply: 10 to 100 nM

Ask: # get_value(readout='IC50', item= Cc1c(-c2ncco2)sc2c1C(=O)C1(CCC(C(=O)O)CC1)C(=O)N2CC(OC1CCOCC1)c1ccccc1 (mixture of isomers) [Compound 6] )
Reply: 100 to 500 nM

Ask: # get_value(readout='IC50', item= COc1ccccc1[C@H](CN1c2sc(-c3ncco3)c(C)c2C(=O)[C@]2(C[C@H](C(=O)N(C)CC(=O)O)C2)C1=O)OC1CCOCC1 [Compound 15] )
Reply: < 10 nM

Ask: # get_value(readout='IC50', item= COc1ccccc1C(CN1C(=O)C2(CCC(C(=O)O)C2)C(=O)c2c1sc(-c1ncco1)c2C)OC1CCOCC1 (mixture of isomers) [Compound 5] )
Reply: < 10 nM

Ask: # get_value(readout='IC50', item= COC(=O)[C@@H](C)NC(=O)[C@H]1C[C@@]2(C1)C(=O)c1c(sc(-c3ncco3)c1C)N(C[C@H](OC1CCOCC1)c1ccccc1OC)C2=O [Compound 14-1] )
Reply: < 10 nM

Ask: # get_value(readout='IC50', item= COC(=O)C(=O)N1CCC2(CC1)C(=O)c1c(sc(-c3ncco3)c1C)N(C[C@H](OC1CCOCC1)c1ccccc1OC)C2=O [Compound 26] )
Reply: < 10 nM
